# Measurement Target: 5-hydroxytryptamine receptor 1A (Homo sapiens)
# Sequence (P08908 whole entry): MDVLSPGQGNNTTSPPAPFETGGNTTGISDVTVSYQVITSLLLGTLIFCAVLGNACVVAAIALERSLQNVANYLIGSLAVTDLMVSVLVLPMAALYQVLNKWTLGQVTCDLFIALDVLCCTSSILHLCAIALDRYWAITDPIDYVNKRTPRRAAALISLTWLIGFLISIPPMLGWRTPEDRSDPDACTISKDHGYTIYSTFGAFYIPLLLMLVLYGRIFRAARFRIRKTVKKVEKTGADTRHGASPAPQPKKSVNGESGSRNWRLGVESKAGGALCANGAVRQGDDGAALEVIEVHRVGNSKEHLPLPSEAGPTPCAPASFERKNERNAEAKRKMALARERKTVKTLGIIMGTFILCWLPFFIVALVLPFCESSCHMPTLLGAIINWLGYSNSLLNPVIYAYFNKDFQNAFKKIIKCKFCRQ
# Assay Protocol: Compound was evaluated for binding affinity against human cloned 5-hydroxytryptamine 1A receptor in HEK 293 cells using [3H]8-OH-DPAT as the radioligand
Reported pKi values for a set of molecules
# pKi = -log10(concentration in molar units)

| Smiles | Measurement Type | Value |
| --- | --- | --- |
| COc1ccc(S(=O)(=O)Nc2cc(Cl)cc(Cl)c2Cl)cc1N1CCNCC1 | pKi | 5.40 |

Ask: What pKi appears in the records for this molecule with 5-hydroxytryptamine receptor 1A (Homo sapiens)? `COc1ccc(S(=O)(=O)N2CCc3ccc(I)cc32)cc1N1CCNCC1`
Reply: 6.30

Hey, just so you know, these numbers are from ChEMBL document CHEMBL1134050.
